This section presents molecules with their documented log10 of IC50 values.
System: MDA-MB-231 human breast cancer cells
Experiment: Proliferation assay MDA-MB-231 (crystal violet)
Format: cell-based
Details: MDA-MB-231 cells, 4 days, median, read-out: Prolif-MDA MB231 IC50 - [mol/l] (median)
Would you kindly interpret these values as log10 of IC50 expressed in nM?

According to the records, this molecule CC(CCN(C)C)n1nc(NCc2nc3ccccc3[nH]2)c2ncc(C3CC3)nc21 (single isomer, unassigned) [Example 64] displays log10 of IC50 of 2.73

According to the records, this molecule c1ccc2[nH]c(CNc3nn(C4CCOC4)c4nc(C5CC5)cnc34)nc2c1 (single isomer, unassigned) displays log10 of IC50 of 2.18

According to the records, this molecule CC(CCN(C)C)n1nc(NCc2nc3ccccc3[nH]2)c2ncc(C3CC3)nc21 (single isomer, unassigned) [Example 63] displays log10 of IC50 of 3.25

According to the records, this molecule COCCC(C)n1nc(NCc2nc3ccccc3[nH]2)c2ncc(C3CC3)nc21 (single isomer, unassigned; (-)) [Example 58] displays log10 of IC50 of 2.33

According to the records, this molecule CN1CCC(n2nc(NCc3nc4ccccc4[nH]3)c3ncc(C4CC4)nc32)C1 (single isomer, unassigned) [Example 78] displays log10 of IC50 of 1.54

According to the records, this molecule CN1CCCC(n2nc(NCc3nc4ccccc4[nH]3)c3ncc(C4CC4)nc32)CC1 (single isomer, unassigned) [Example 37] displays log10 of IC50 of 1.18

Further cases:
According to the records, this molecule COCCC(C)n1nc(NCc2nc3ccccc3[nH]2)c2ncc(C3CC3)nc21 (single isomer, unassigned; (+)) [Example 59] displays log10 of IC50 of 2.91

According to the records, this molecule CN1CCCC(n2nc(NCc3nc4ccccc4[nH]3)c3ncc(C4CC4)nc32)CC1 (single isomer, unassigned) [Example 38] displays log10 of IC50 of 1.67

According to the records, this molecule CN1CCC(n2nc(NCc3nc4ccccc4[nH]3)c3ncc(C4CC4)nc32)C1 (single isomer, unassigned) [Example 79] displays log10 of IC50 of 2.34

---

Biological target: CDK12 (Homo sapiens, UniProt Q9NYV4)
Construct: endogenous in cells; host or cells: CAL-120 human breast cancer cells (DSMZ ACC 459)
Sequence (Q9NYV4 whole entry): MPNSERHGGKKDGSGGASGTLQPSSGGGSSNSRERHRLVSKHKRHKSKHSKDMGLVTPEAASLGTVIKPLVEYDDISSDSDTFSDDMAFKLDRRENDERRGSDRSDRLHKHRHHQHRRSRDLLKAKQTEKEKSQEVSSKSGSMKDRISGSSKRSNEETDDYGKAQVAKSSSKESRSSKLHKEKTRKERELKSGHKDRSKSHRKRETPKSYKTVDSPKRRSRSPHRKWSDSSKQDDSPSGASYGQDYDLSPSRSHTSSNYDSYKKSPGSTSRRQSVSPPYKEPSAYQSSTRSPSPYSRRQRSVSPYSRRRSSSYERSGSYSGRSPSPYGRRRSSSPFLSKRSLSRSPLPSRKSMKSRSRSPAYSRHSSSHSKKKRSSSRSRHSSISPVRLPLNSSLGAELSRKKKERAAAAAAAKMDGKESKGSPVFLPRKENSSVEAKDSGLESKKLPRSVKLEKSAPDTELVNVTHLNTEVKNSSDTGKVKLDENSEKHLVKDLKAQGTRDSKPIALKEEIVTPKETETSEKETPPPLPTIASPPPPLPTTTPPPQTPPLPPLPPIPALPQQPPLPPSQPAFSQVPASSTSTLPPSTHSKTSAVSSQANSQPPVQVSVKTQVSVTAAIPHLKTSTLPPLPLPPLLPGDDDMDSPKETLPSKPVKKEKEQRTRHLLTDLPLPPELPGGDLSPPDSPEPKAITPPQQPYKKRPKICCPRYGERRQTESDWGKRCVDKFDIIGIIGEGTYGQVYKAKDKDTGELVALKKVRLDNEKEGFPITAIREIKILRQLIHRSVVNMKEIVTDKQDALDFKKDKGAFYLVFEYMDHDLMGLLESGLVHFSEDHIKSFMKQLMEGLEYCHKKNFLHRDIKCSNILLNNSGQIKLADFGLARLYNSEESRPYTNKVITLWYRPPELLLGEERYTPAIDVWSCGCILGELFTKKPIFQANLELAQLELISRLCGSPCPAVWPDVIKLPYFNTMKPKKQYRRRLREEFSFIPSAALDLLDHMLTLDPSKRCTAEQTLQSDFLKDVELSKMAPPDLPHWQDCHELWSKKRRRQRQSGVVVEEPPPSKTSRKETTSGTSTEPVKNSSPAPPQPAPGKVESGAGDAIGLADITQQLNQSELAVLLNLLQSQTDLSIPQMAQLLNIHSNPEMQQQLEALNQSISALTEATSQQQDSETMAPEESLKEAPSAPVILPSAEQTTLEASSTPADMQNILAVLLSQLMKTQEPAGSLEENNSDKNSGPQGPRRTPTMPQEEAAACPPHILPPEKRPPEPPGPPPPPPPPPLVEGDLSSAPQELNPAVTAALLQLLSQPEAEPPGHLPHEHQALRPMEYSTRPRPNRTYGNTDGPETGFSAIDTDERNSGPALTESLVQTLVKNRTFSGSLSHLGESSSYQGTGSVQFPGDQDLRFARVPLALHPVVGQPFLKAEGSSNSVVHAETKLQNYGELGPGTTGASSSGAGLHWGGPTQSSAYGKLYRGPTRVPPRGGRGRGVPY
Sequence (O75909 whole entry partner): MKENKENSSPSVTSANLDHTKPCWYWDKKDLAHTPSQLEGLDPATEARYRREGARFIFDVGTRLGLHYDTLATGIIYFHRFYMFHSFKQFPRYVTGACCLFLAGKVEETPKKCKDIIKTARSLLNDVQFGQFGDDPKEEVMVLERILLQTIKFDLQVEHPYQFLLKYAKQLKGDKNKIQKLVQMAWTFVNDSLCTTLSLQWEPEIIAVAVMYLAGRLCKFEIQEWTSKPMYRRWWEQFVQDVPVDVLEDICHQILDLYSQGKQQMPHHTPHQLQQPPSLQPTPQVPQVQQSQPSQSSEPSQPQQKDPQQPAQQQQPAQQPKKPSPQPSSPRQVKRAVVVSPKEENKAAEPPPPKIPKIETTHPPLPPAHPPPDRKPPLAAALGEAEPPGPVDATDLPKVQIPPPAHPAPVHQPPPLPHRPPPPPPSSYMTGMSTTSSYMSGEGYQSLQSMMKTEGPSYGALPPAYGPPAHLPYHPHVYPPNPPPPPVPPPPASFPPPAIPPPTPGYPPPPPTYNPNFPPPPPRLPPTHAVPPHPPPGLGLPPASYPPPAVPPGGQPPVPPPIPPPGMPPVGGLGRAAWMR
Assay: CDK12 nuclear protein level: immunofluorescence/high content analysis in CAL-120 cells
Assay type: cell-based
Conditions: CAL-120 cells; 24 h; nuclear CDK12 staining intensity; median; read-out: CDK12 degradation IF DC50 - [mol/l] (median)
measured_property: log10(DC50) (log10 of the value in nM)
Would you kindly interpret these values as log10 of DC50 expressed in nM?

Illustrative cases are given below, each with its answer.
According to the records, this molecule CC1(C)CC(n2nc(NCc3nc4ccccc4[nH]3)c3ncc(C4CC4)nc32)CC(C)(C)O1 displays log10(DC50) of 1.69

According to the records, this molecule CC(CCN(C)C)n1nc(NCc2nc3ccccc3[nH]2)c2ncc(C3CC3)nc21 (single isomer, unassigned) [Example 64] displays log10(DC50) of 1.92

According to the records, this molecule CC1CC(n2nc(NCc3nc4ccccc4[nH]3)c3ncc(C4CC4)nc32)CCN1C (racemic) displays log10(DC50) of 0.61

Further cases:
According to the records, this molecule CN1CCC(n2nc(NCc3nc4c(F)c(F)ccc4[nH]3)c3ncc(C4CC4)nc32)CC1 displays log10(DC50) of 0.91

According to the records, this molecule CN1CCC(n2nc(NCc3nc4c(Cl)c(F)ccc4[nH]3)c3ncc(C4CC4)nc32)CC1 displays log10(DC50) of 1.16

According to the records, this molecule CN1CCC(n2nc(NCc3nc4ccccc4[nH]3)c3ncc(C4CC4)nc32)C1 (single isomer, unassigned) [Example 78] displays log10(DC50) of 1.53

According to the records, this molecule CC1CC(n2nc(NCc3nc4ccccc4[nH]3)c3ncc(C4CC4)nc32)CCO1 (racemic) displays log10(DC50) of 1.54

Data origin, for the record: patent US20230192700A1
